molecular target: SMARCA4 (Homo sapiens, UniProt P51532); construct: endogenous in cells; host or cells: A549 (NSCLC) cells with SMARCA4 mutation corrected to wild type; assay: Protein degradation assay in A549 cells, SMARCA4 levels by WES capillary electrophoresis; assay type: cell-based; conditions: A549 (NSCLC) cells with SMARCA4 mutation corrected to wild type; 18 h incubation; concentration at which half maximal degradation is achieved; normalised to GAPDH
Sequence (P51532 whole entry): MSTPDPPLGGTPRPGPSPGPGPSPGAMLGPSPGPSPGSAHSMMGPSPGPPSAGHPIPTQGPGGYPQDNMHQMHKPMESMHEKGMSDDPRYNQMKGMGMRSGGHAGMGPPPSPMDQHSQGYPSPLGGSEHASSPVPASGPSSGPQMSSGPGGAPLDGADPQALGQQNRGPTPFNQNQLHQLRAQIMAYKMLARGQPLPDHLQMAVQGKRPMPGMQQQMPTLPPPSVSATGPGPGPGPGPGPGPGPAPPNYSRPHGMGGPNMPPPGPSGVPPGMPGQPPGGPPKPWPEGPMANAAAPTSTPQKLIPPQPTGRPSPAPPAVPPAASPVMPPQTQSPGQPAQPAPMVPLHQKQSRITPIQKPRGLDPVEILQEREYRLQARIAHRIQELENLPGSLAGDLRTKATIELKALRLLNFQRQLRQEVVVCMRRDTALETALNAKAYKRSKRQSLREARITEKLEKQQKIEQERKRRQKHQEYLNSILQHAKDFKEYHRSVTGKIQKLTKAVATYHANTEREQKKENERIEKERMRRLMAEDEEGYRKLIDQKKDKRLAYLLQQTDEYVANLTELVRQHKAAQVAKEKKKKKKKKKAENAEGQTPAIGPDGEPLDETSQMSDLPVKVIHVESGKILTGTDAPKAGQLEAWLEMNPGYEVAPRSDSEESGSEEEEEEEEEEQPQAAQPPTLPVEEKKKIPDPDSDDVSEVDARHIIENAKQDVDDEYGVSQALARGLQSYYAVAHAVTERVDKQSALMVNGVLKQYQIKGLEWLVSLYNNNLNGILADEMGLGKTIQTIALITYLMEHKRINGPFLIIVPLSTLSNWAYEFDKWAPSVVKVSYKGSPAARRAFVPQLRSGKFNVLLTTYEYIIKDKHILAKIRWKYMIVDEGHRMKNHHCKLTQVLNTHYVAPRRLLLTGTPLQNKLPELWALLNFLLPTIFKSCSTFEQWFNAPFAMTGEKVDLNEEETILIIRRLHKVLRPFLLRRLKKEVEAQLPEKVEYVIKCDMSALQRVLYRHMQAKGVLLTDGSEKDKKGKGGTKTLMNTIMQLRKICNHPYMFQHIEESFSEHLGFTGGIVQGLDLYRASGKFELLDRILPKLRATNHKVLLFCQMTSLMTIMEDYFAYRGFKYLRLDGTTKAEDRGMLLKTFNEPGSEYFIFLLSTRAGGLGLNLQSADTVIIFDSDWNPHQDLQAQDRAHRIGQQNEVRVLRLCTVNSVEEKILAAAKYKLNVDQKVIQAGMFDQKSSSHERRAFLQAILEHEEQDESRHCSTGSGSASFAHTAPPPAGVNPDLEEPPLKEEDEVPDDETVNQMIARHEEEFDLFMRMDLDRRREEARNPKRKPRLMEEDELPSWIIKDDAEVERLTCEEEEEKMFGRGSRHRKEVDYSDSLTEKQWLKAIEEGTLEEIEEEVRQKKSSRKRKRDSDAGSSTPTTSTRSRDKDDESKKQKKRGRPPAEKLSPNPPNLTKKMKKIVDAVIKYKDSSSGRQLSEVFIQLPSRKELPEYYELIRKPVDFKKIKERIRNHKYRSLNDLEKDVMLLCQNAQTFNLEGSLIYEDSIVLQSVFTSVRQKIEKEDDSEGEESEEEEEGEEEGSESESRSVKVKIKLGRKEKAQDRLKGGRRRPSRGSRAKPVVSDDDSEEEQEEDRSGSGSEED
TEST_READOUT: DC50 (nM)
// units = nM; emit number, no label

Observe how each entry below is paired with its result.
- SMILES: "Cc1ncsc1-c1ccc(CNC(=O)[C@@H]2C[C@@H](O)CN2C(=O)[C@@H](NC(=O)C2(F)CC2)C(C)(C)C)c(OCCc2ccc(C(=O)N3CCN(c4cc(-c5ccccc5O)nnc4N)CC3)cc2)c1"
  TEST_READOUT: "DC50"
  NUMERIC_READOUT: 188
- SMILES: "Cc1ncsc1-c1ccc(CNC(=O)[C@@H]2C[C@@H](O)CN2C(=O)[C@@H](NC(=O)C2(F)CC2)C(C)(C)C)c(OCCCCOCCN2CCN(c3cc(-c4ccccc4O)nnc3N)CC2)c1"
  TEST_READOUT: "DC50"
  NUMERIC_READOUT: 735
- SMILES: "Cc1ncsc1-c1ccc(CNC(=O)[C@@H]2C[C@@H](O)CN2C(=O)[C@@H](NC(=O)C2(F)CC2)C(C)(C)C)c(OCCCOc2ccc(CN3CCN(c4cc(-c5ccccc5O)nnc4N)CC3)cc2)c1"
  TEST_READOUT: "DC50"
  NUMERIC_READOUT: 16

System SMARCA4 (Homo sapiens, UniProt P51532). Read-out DC50. Item Cc1ncsc1-c1ccc(CNC(=O)[C@@H]2C[C@@H](O)CN2C(=O)[C@@H](NC(=O)C2(F)CC2)C(C)(C)C)c(OCCCc2ccc(CN3CCN(c4cc(-c5ccccc5O)nnc4N)CC3)cc2)c1 . Report value. 25

System SMARCA4 (Homo sapiens, UniProt P51532). Read-out DC50. Item Cc1ncsc1-c1ccc(CNC(=O)[C@@H]2C[C@@H](O)CN2C(=O)[C@@H](NC(=O)C2(F)CC2)C(C)(C)C)c(OCc2ccc(CN3CCN(c4cc(-c5ccccc5O)nnc4N)CC3)cc2)c1 . Report value. 168

System SMARCA4 (Homo sapiens, UniProt P51532). Read-out DC50. Item Cc1ncsc1-c1ccc(CNC(=O)[C@@H]2C[C@@H](O)CN2C(=O)[C@@H](NC(=O)C2(F)CC2)C(C)(C)C)c(OCCOc2ccc(CN3CCN(c4cc(-c5ccccc5O)nnc4N)CC3)cc2)c1 . Report value. 16
